- Tested on: primary TM cells embedded in collagen gel
- protocol: collagen gel embedded expansion and/or contraction assay
- Type: cell-based, human
- measurementParameters: 10 pmole lipid, collagen column length at 24 hours
quantityName: gel expansion/contraction of cells in artificial embedment

Solved cases below.
>  <molecule>
CCCC/C=C\C/C=C\CCCCCCCC(=O)O[C@H](COC(=O)CCCCCCCCCCC)COP(=O)(O)OC1C(O)C(O)C(O)[C@@H](O)C1O (stereo partly drawn) [PI(12:0/17:2)9Z,12Z))]

>  <result>
showed an effect

$$$$
>  <molecule>
CCCCCCCC/C=C\CCCCCCCCCCCCCCCC(=O)N[C@@H](CO)[C@H](O)/C=C/CCCCCCCCCCCCC [Cer(d18:1/26:1(17Z))]

>  <result>
showed an effect

$$$$
>  <molecule>
CCCCCCCCCCC/C=C/[C@@H](O)[C@H](COP(=O)([O-])OCC[N+](C)(C)C)NC(=O)CCCCCCCCCCCCCCCCCCCCCCCC

>  <result>
showed an effect

$$$$
>  <molecule>
CCCCCCCCCCCCC(=O)OC[C@H](COP(=O)([O-])OCC[N+](C)(C)C)OC(=O)CCCCCCCCCCCC [PC(13:0/13:0), reference compound]

>  <result>
lack of any effect

$$$$
>  <molecule>
CCCCCCCC/C=C\CCCCCCCC(=O)N[C@@H](CO)[C@H](O)CCCCCCCCCCCCCCC

>  <result>
showed an effect

$$$$

For every record below, what is its gel expansion/contraction of cells in artificial embedment?
1. CCCCCCCCCCCCCCCCCC(=O)OC[C@H](COP(=O)(O)OCCN)OC(=O)CCCCCCCCCCCCCCCCC
2. CCCC/C=C\CCCCCCCC(=O)O[C@H](COC(=O)CCCCCCCCCCC)COP(=O)([O-])OCC[N+](C)(C)C
3. CCCCCCCCCCCCCCC[C@@H](O)[C@@H](N)CO
4. CCCCCCCCCCCCCC(=O)OC[C@@H](O)COP(=O)(O)OC[C@H](N)C(=O)O

Output line:
1. showed an effect
2. lack of any effect
3. showed an effect
4. showed an effect

###

- Test system: primary TM cells embedded in collagen gel
- protocol: collagen gel embedded expansion and/or contraction assay
- Format: cell-based, human
- measurementParameters: 10 pmole lipid, collagen column length at 24 hours
quantityName: gel expansion/contraction of cells in artificial embedment

>  <compound>
CCCCCCCCCCCCCCCCCC(=O)OC[C@@H](O)COP(=O)(O)OC[C@H](N)C(=O)O [PS(18:0/0:0)]

>  <result>
showed an effect

$$$$
>  <compound>
CCCCCCCCCCCCCC[C@@H](O)[C@@H](N)COP(=O)(O)O [C17 Sphinganine-1-phosphate]

>  <result>
showed an effect

$$$$
>  <compound>
CCCCC/C=C\C/C=C\C/C=C\C/C=C\CCCC(=O)O[C@H](COC(=O)CCCCCCCCCCCCCCCCC)COP(=O)(O)OC1[C@H](O)[C@H](O)C(O)[C@H](O)[C@H]1O (stereo partly drawn) [PI(18:0/20:4)5Z,8Z,11Z,14Z))]

>  <result>
showed an effect

$$$$
